- tested.on: Cytochrome P450 2D6 (Homo sapiens, UniProt P10635)
- Sequence (P10635 whole entry): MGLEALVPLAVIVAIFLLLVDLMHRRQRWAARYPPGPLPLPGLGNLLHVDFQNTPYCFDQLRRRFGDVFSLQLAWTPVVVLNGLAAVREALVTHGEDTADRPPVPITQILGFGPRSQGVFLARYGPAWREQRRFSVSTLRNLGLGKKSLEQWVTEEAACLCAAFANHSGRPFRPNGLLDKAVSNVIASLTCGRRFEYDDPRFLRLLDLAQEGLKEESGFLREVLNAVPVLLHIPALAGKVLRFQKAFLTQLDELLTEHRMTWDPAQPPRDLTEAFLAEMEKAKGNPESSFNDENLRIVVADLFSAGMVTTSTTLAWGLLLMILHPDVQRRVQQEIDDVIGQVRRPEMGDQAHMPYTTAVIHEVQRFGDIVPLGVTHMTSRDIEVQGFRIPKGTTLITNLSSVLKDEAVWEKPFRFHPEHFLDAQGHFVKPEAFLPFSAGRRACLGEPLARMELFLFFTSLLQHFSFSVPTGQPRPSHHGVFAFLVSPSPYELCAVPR
- measurement.notes: Inhibition of CYP2D6 (unknown origin) compound preincubated with substrate
- Assay type: ADME
reported.property: IC50

> print(dat)
                                   compound  observed.measurement
1  COCCOc1ccccc1N1CCN(C(=O)C2(Oc3ccc(C(F)(F)F)cc3)CCCN(C(=O)c3cnccc3C(F)(F)F)C2)CC1.Cl (single isomer, unassigned)               > 30 µM

###

Listing of recorded pIC50 by entry.
- tested.on: Tumour suppressor p53/oncoprotein Mdm2 (Homo sapiens)
- Sequence (P04637 whole entry): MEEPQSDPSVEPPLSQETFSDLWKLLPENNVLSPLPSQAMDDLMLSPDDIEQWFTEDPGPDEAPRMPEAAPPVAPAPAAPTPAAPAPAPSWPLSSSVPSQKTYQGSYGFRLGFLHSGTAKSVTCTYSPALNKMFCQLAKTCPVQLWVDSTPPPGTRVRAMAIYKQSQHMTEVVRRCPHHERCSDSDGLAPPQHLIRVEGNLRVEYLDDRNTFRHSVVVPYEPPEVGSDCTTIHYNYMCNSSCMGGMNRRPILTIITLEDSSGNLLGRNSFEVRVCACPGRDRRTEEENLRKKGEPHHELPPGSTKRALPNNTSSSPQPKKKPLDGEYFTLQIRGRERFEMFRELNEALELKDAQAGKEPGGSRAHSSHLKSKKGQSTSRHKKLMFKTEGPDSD
- Sequence (Q00987 whole entry): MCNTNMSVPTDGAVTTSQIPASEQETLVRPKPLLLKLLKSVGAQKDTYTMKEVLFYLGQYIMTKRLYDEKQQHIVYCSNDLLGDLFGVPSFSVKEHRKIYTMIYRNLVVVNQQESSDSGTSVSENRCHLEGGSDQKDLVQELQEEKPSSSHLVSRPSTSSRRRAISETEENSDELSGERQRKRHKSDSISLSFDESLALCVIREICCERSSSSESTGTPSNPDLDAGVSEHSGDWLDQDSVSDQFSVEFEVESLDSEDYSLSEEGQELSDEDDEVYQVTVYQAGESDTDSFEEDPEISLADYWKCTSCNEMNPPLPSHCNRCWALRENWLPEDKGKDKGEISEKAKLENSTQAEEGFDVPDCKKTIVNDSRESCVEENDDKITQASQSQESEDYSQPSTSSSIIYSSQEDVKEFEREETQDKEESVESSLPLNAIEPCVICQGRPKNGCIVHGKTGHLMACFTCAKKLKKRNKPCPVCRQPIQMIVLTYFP
- measurement.notes: Inhibition of human MDM2/p53 interaction by fluorescence polarization assay
pIC50: −log10 of the molar value.
reported.property: pIC50

> print(dat)
                                   compound                                 tested.on  observed.measurement
1  COc1ccc(N2CCN(C(=O)C3(Oc4ccc(C(F)(F)F)cc4)CCCN(C(=O)c4cnccc4C(F)(F)F)C3)CC2)cc1 (configuration not stated)  Tumour suppressor p53/oncoprotein Mdm2 (Homo sapiens)                  4.64
2  CC(=O)Nc1ccccc1N1CCN(C(=O)C2(Oc3ccc(C(F)(F)F)cc3)CCCN(C(=O)c3cnccc3C(F)(F)F)C2)CC1 (configuration not stated)  Tumour suppressor p53/oncoprotein Mdm2 (Homo sapiens)                  6.42
3  CN1CCN(C(=O)C2(Oc3ccc(C(F)(F)F)cc3)CCCN(C(=O)c3cnccc3C(F)(F)F)C2)CC1 (configuration not stated)  Tumour suppressor p53/oncoprotein Mdm2 (Homo sapiens)                  4.92
4  O=C(NCCc1ccccc1)C1(Oc2ccc(C(F)(F)F)cc2)CCCN(C(=O)C2(c3ccc(Cl)cc3)CC2)C1 (configuration not stated)  Tumour suppressor p53/oncoprotein Mdm2 (Homo sapiens)                  5.85
5  Cc1nc2cc(OC3(C(=O)N4CCN(c5ccccn5)CC4)CCCN(C(=O)c4cnccc4C(F)(F)F)C3)ccc2s1 (configuration not stated)  Tumour suppressor p53/oncoprotein Mdm2 (Homo sapiens)                  4.39
6  O=C(c1cnccc1C(F)(F)F)N1CCCC(Oc2ccc(C(F)(F)F)cc2)(C(=O)N2CC=C(c3ccccc3)CC2)C1 (configuration not stated)  Tumour suppressor p53/oncoprotein Mdm2 (Homo sapiens)                  5.85
7  CN(C)CCCC(=O)Nc1ccccc1N1CCN(C(=O)C2(Oc3ccc(C(F)(F)F)cc3)CCCN(C(=O)c3cnccc3C(F)(F)F)C2)CC1 (configuration not stated)  Tumour suppressor p53/oncoprotein Mdm2 (Homo sapiens)                  5.97

###

- measurement.notes: Oral bioavailability in mouse at 20 mg/kg
- Assay type: ADME, organism-based
- condition.info: in vivo
reported.property: bioavailability (%)

> print(dat)
                                   molecule  reported.property  observed.measurement
1  COCCOc1ccccc1N1CCN(C(=O)C2(Oc3ccc(C(F)(F)F)cc3)CCCN(C(=O)c3cnccc3C(F)(F)F)C2)CC1.Cl (single isomer, unassigned)    bioavailability                    32

###

- tested.on: Tumour suppressor p53/oncoprotein Mdm2 (Homo sapiens)
- measurement.notes: Inhibition of human MDM2/p53 interaction by fluorescence polarization assay
Criterion: IC50 strictly less than 6 µM. Met: true. Not met: false.

> print(dat)
                                   molecule  answer.label
1  O=C(c1cnccc1C(F)(F)F)N1CCCC(Oc2ccc(C(F)(F)F)cc2)(C(=O)N2CCc3ccccc3C2)C1 (centres undefined)          true
2  O=C(N1CCN(c2ccccn2)CC1)C1(Oc2ccc(C(F)(F)F)cc2)CCCN(S(=O)(=O)c2ccc(Cl)cc2)C1 (centres undefined)         false
3  O=C(c1cnccc1C(F)(F)F)N1CCCC(Oc2ccc(C(F)(F)F)cc2)(C(=O)NCCc2ccccc2)C1 (centres undefined)          true
4  Cc1ccc(OC2(C(=O)N3CCN(c4ccccn4)CC3)CCCN(C(=O)c3cnccc3C(F)(F)F)C2)cc1 (centres undefined)          true
5  O=C(c1ccccc1C(F)(F)F)N1CCCC(Oc2ccc(C(F)(F)F)cc2)(C(=O)N2CCN(c3ccccn3)CC2)C1 (centres undefined)         false
6  CCCN1CCCC(Oc2ccc(C(F)(F)F)cc2)(C(=O)N2CCN(c3ccccn3)CC2)C1 (centres undefined)         false
7  CC(=O)N1CCN(C(=O)C2(Oc3ccc(C(F)(F)F)cc3)CCCN(C(=O)c3cnccc3C(F)(F)F)C2)CC1 (centres undefined)         false
8  O=C(c1cnccc1C(F)(F)F)N1CCCC(Oc2ccc(C(F)(F)F)cc2)(C(=O)N2CCN(c3ccncn3)CC2)C1 (centres undefined)         false
